Target: T1, PDZD2_2, O15018
T1 sequence (O15018 329-429, limits assumed, looked up): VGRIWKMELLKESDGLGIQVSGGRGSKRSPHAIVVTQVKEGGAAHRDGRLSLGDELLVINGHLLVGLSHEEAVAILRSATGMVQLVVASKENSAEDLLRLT
Test: holdup assay
Set-up: key: below the threshold = too weak to quantify, mostly under pKd 3.1 to 4
Conditions: plain residues with an end cap or a label only (N-terminal biotin on a linker: ttds)
assay.endpoint: pKd

binder: PPRQRSETQV [HPV82-E6, Q9IR59]
assay.endpoint: pKd
recorded.result: below the threshold
//
binder: SRSRRRETAL [HPV33-E6, P06427]
assay.endpoint: pKd
recorded.result: below the threshold
//
binder: GARVSKETPL [MAPK12, P53778]
assay.endpoint: pKd
recorded.result: below the threshold
